All values here come from patent US8163804B2.

- Test system: Rice Striped Stem Borer (Chilo suppressalis)
- applied_conditions: 5 gai/box
readout_label: Chilo suppressalis Mortality (%)

query_smiles=Cc1cc(C(F)(C(F)(F)F)C(F)(F)F)cc(C)c1NC(=O)c1cccc(N(C)C(=O)c2cccnc2F)c1F value_measured=95
query_smiles=Cc1cc(C(F)(C(F)(F)F)C(F)(F)F)cc(C)c1NC(=O)c1cccc(N(C)C(=O)c2ccc(C#N)cc2)c1F value_measured=90
query_smiles=Cc1cc(C(F)(C(F)(F)F)C(F)(F)F)cc(C)c1NC(=O)c1cccc(NC(=O)c2cccnc2Cl)c1F value_measured=90
query_smiles=Cc1cc(C(F)(C(F)(F)F)C(F)(F)F)cc(C)c1NC(=O)c1cccc(NC(=O)c2cccnc2Cl)c1 value_measured=90
query_smiles=Cc1cc(C(F)(C(F)(F)F)C(F)(F)F)cc(C)c1NC(=O)c1cccc(N(C)C(=O)c2cccnc2Cl)c1F value_measured=95
